# Test system: db/db mice
# RUN_DESCRIPTION: db/db mouse model: serum glucose, triglyceride and cholesterol levels
# Format: in vivo
# EXPERIMENTAL_CONDITIONS: 30 mg/kg orally once a day for 5 days, serum 4 hours after last gavage
QUANTITY_MEASURED: Cholesterol, % variation on the final day relative to the control group

Look over these answered cases.
CC(OCc1cc2cc(Cl)ccc2n1S(=O)(=O)c1ccccc1)C(=O)O (centres unmarked) | +25%
O=C(O)CCCc1cc2cc(Cl)ccc2n1S(=O)(=O)c1ccc2c(c1)OCO2 | −15%
O=C(O)CCc1cc2cc(C(F)(F)F)ccc2n1S(=O)(=O)c1ccccc1 | +41%
O=C(O)CCc1cc2cc(Cl)ccc2n1S(=O)(=O)c1ccc2ncsc2c1 | +38%

Next item in the queue.
Item `O=C(O)CCc1cc2cc(Cl)ccc2n1S(=O)(=O)c1ccccc1` has what recorded Cholesterol, % variation on the final day relative to the control group? +30%
